Biological target: recombinant full-length PfCSP (Plasmodium falciparum circumsporozoite protein, strain NF54) (Plasmodium falciparum NF54, UniProt P19597)
Sequence (P19597 20-375): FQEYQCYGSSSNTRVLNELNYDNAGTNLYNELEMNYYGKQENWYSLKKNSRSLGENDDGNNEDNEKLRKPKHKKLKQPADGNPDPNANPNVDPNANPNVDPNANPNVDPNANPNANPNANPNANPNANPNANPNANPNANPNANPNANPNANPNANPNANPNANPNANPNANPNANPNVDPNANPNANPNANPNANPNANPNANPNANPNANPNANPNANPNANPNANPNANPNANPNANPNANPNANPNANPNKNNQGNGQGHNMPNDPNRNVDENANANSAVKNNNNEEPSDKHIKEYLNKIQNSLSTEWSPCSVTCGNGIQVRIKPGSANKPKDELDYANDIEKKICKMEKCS

binder	binding result
CL-445827 (antibody, V domains shown) VH: QVQLVASGGGVVQPGRSLRLSCVASGFTFSFFGMHWVRQTPGRGLEWVAIIWYDGGHKFYADSVKGRFTISRDNSKDTLYLQMNSLRAEDTAVYYCARAEDNMARGNIDYSKYGMDVWGQGTTVTVSS VL: DIQMTQSPSTLSVSIGDRVTITCRASQSISTWLAWYQQKPGKAPKLLIYKASNLESGVPSRFSGSGSGTDFTLTISGLQPDDFATYYCQQYFSYWTFGQGTKVEIK	binds
CL-513274 (antibody, V domains shown) VH: QVQLVESGGGVVQPGRSLRVSCAASGFTFSNYGMYWVRQAPGKGLEWVALIWHDGSNKFYEDSVKGRFTISRDNSKNTLYLQMNSLRAEDTAVYYCARAGYFQGSGSFLDYWGQGTLVTVSS VL: DIQMTQSPSTLSASVGDRVTITCRASQSISTWLAWYQQKPGKAPKLLIYKASSLESGVPSRFSGSGSGTEFTLTISSLQPDDFATYFCQQYSSYWTFGQGTKVEIK	binds
CL-508731 (antibody, V domains shown) VH: QVQLVESGGGVVQPGRSLRLSCVASGFTFSNNGMHWVRQAPGKGLEWVAIIWHDGSNKFYAESVRGRFTISRDNSNNTLYLQMNSLRAEDTAVYYCARDRMFGSGSWNYFDPWGQGTLVTVSS VL: EIVLTQSPATLSLSPGERATLSCRASQSISTYLAWYQQKPGQAPRLLIYDASNRATGIPARFSGSGSGTDFTLTISSLEPEDFAVYYCQQRSYWWTFGQGTKVEIK	binds
